Biological target: KIF18a-microtubule complex (Homo sapiens (Human))
Sequence (Q8NI77 1-374, one chain of several): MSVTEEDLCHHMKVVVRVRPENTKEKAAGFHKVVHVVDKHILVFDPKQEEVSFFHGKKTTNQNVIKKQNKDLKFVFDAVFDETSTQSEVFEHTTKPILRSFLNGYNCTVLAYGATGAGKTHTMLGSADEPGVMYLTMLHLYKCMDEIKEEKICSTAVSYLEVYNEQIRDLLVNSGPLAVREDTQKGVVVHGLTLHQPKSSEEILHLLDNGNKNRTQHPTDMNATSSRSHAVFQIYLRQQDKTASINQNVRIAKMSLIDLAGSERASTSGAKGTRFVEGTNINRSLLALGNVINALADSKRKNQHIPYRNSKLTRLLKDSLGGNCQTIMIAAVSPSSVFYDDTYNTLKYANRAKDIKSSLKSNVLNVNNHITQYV
Assay: Binding kinetics to KIF18a-microtubule complex (global progress curve analysis)
Settings: KIF18A 0.25 nM, up to 24 hr; read-out: koff (off-rate from binding kinetics assay) (converted)
parameter: koff (s⁻¹)

In the examples that follow, each entry is paired with its recorded koff.
CS(=O)(=O)Nc1ccc(-n2cc(-c3cccc(N4CCC(F)(F)CC4)n3)nn2)c(N2CCC3(CC2)CC3)c1; 4.44e-06
O=S(=O)(CCO)Nc1ccc(-n2cc(-c3csc(N4CCC(F)(F)CC4)n3)nn2)c(N2CCC3(CC2)CC3)c1; 1.94e-05

P: Cc1cc(-c2cn(-c3ccc(NS(=O)(=O)CCO)cc3N3CCCCC3)nn2)nc(N2CCC(F)(F)CC2)c1
Q: CS(=O)(=O)Nc1ccc(-n2cc(-c3cccc(N4CCC(F)(F)CC4)n3)nn2)c(N2CCCCC2)c1
R: CS(=O)(=O)Nc1ccc(-c2nnc(-c3cccc(N4CCOCC4)n3)[nH]2)c(N2CCC3(CC2)CC3)c1
S: CS(=O)(=O)Nc1ccc(-c2ncc(-c3cccc(N4CCOCC4)n3)[nH]2)c(N2CCC3(CC2)CC3)c1
Q. Hey, quick one: sort these by koff, largest value first please. Respond with an ordered listing of the labels, as requested.
A. S, R, P, Q

I: Cc1cc(-c2cn(-c3ccc(NS(=O)(=O)CCO)cc3N3CCC4(CC3)CC4)nn2)nc(N2CCC(F)(F)CC2)n1
II: Cc1cc(-c2cn(-c3ccc(NS(=O)(=O)CCO)cc3N3CCCCC3)nn2)nc(N2CCC(F)(F)CC2)n1
III: O=S(=O)(CCO)Nc1ccc(-n2cc(-c3cccc(N4CCC(F)(F)CC4)n3)nn2)c(N2CCC3(CC2)CC3)c1
Q. Ranking field: koff; order: falling. Lab note: final answer is the ordered label list.
A. II, III, I

---

Quick record: IC50, hKIF18A (1-374) (Homo sapiens (Human)).
parameter: IC50 (nM)

CS(=O)(=O)Nc1ccc(-n2cc(-c3cccc(C(O)C4CCCC4)n3)nn2)c(N2CCC3(CC2)CC3)c1 (centres unmarked) [Compound 22]; 11

1: O=S(=O)(CCO)Nc1ccc(-n2cc(-c3cccc(C(O)C4CCCC4)n3)nn2)c(N2CCC3(CC2)CC3)c1 (single isomer, unassigned) [Compound 90b]
2: CS(=O)(=O)Nc1ccc(-n2cc(-c3nccc(N4CCC(F)(F)CC4)n3)cn2)c(N2CCC3(CC2)CC3)c1 [Compound 66]
3: O=S(=O)(CCO)Nc1ccc(-c2cn(-c3cccc(OC4CCCC4)n3)nn2)c(N2CCC3(CC2)CC3)c1 [Compound 113]
4: CS(=O)(=O)Nc1ccc(-n2cc(-c3cccc(N4CCC(F)(F)CC4)n3)nn2)c(N2CCC3(CC2)CC3)n1 [Compound 46]
Q. List the 4 entries from lowest IC50 to highest IC50 value. Please express your ranking as an ordered list of the labels.
A. 1, 4, 2, 3

---

pIC50: −log10 of the molar value.
The next entries give measured pIC50 for hKIF18A (1-374) (Homo sapiens (Human), UniProt Q8NI77).
parameter: pIC50

Cc1cc(-c2cn(-c3ccc(NS(=O)(=O)CCO)cc3N3CCC4(CC3)CC4)nn2)nc(N2CCC(F)(F)CC2)n1 [Compound 47]; 7.72
CCS(=O)(=O)Nc1ccc(-n2cc(-c3cc(C)cc(C(O)C4CCCC4)n3)nn2)c(N2CCC3(CC2)CC3)c1 (centres unmarked) [Compound 138]; 7.59
CS(=O)(=O)Nc1ccc(-c2cn(-c3cccc(N4CCC(F)(F)CC4)c3)nn2)c(N2CCC3(CC2)CC3)c1 [Compound 64]; 7.60

P: O=S(=O)(CCO)Nc1ccc(-n2cc(-c3ccn(C4CCC(F)(F)CC4)n3)nn2)c(N2CCCCC2)c1 [Compound 76]
Q: O=S(=O)(CCO)Nc1ccc(-n2cc(-c3ccc(F)c(N4CC5CC5C4)n3)nn2)c(N2CCC3(CC2)CC3)c1 (centres unmarked) [Compound 153]
R: CS(=O)(=O)Nc1ccc(-n2cc(-c3cccc(N4CCC(F)(F)CC4)n3)nn2)c(N2CC3CC3C2)c1 (centres unmarked) [Compound 165]
S: O=S(=O)(CCO)Nc1ccc(-n2cc(-c3ccc(C(O)C4CCCC4)o3)nn2)c(N2CCC3(CC2)CC3)c1 (centres unmarked) [Compound 51]
Q. hey, can you rank those compounds up there by pIC50? biggest number first please Return the labels ranked in the requested order, please.
A. S, Q, P, R
